target-under-test: hiNOS (Homo sapiens, UniProt P35228)
assay-comment: DAN assay, hiNOS expressed in transiently transfected HEK293 cells
assay-setup: HEK293 cells transiently transfected with hiNOS
Counter-ions that a name gives are not always drawn.
attribute-measured: EC50

compound: Cc1cc(C(C)(C)CCC(=O)NCc2ccc3c(c2)OCO3)nc(-n2ccnc2)n1
EC50: < 1000 nM
--
compound: CN(CCCCNCc1ccc2c(c1)OCO2)c1nc(-n2ccnc2)ns1
EC50: < 1000 nM
--
compound: Cc1cc(C(C)(C)CNCCCc2ccc3c(c2)OCO3)nc(-n2ccnc2)n1 [Example 78, hydrochloride]
EC50: < 1000 nM
--
compound: CN(CCCN(C)c1nc(-n2ccnc2)ns1)CCc1ccc2c(c1)OCCO2
EC50: < 1000 nM
--
compound: Cc1cc(C(C)NCCOCc2ccc3c(c2)OCO3)nc(-n2ccnc2)n1 (stereo not drawn)
EC50: < 1000 nM
--
compound: Cc1cc(CNC(=O)C2CCCN2Cc2ccc(F)cc2)nc(-n2ccnc2)n1 (stereo not drawn)
EC50: > 50000 nM
--
compound: O=C(NCCc1ccc2c(c1)OCO2)[C@H]1Cc2ccccc2CN1c1nc(-n2ccnc2)ns1
EC50: < 1000 nM
--
compound: CN(CCNCCc1ccc2c(c1)OCO2)c1nc(-n2ccnc2)ns1
EC50: < 1000 nM

Entry CN(CCCNCc1ccc(Cl)cc1)c1nc(-n2ccnc2)ns1 ; EC50 = < 50000 nM

// provenance: patent US7825256B2
